# Assayed system: Plasmodium falciparum protein kinase 6 (PK6, PF3D7_1337100) (UniProt Q8IDW1)
# Sequence (Q8IDW1 1-305): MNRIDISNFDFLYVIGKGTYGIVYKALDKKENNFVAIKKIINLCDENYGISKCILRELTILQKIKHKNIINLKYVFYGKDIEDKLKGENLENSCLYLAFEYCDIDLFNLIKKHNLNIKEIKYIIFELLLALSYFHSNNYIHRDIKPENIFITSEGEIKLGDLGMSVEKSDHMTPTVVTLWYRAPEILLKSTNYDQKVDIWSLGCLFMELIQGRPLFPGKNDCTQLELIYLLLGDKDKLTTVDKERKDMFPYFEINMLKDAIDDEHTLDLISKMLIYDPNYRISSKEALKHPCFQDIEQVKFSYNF
# Test name: PfPK6 kinase inhibitors, biochemical, TCAMS library (AID 1159586)
# Condition set: recombinant PfPK6, Kinase-Glo ATP depletion luminescence
Results with a measured potency or affinity are listed apart. The source made the active and inactive calls. No rule for the calls is given here.
Value type: outcome

Known results for compounds:
{"columns": ["Compound", "Assay result"],
 "data": [
  ["NOCCCCOc1ccc(Cl)cc1", "inactive"],
  ["COc1ccc2nccc([C@@H](O)CN3CCC(NC(=O)C(c4cc5ccccc5o4)N4CCN(c5ccccc5OC)CC4)CC3)c2c1 (some centres not stated)", "inactive"],
  ["CC(C)CCNC(=O)C1Cc2c([nH]c3ccc(Br)cc23)C2(CCN(CCc3ccccc3)CC2)N1 (configuration not stated)", "inactive"],
  ["COc1cccc2cc(C(=O)N[C@@H](CC(C)C)C(=O)N[C@H](/C=N/N3CCOC3=O)Cc3ccccc3)oc12", "inactive"],
  ["C=C[C@]1(C)C[C@@H](OC(=O)CNC[C@@H](O)CN2C[C@H](c3ccnc4ccc(OC)nc34)OC2=O)[C@]2(C)[C@H](C)CC[C@]3(CCC(=O)[C@H]32)[C@@H](C)[C@@H]1O", "inactive"],
  ["Cc1ccc([C@@H]2CC(=O)CC(c3ccccn3)[C@H]2[N+](=O)[O-])cc1 (some centres not stated)", "inactive"],
  ["COc1ccc(S(=O)(=O)N2CCC3(CC2)OCC(=O)NC3c2ccc(Cl)c(Cl)c2)cc1 (configuration not stated)", "inactive"],
  ["O=C(Nc1cccc(F)c1)N1CCC(CN2CCOC(c3ccccc3)(c3ccccc3)C2)CC1", "inactive"]
]}

Prompt: Looking for the measured outcome of CN(Cc1cccc(F)c1)C1CCN(c2cc(NC(=O)c3ccc(F)cc3)ccn2)CC1 , can you help?
Completion: inactive

Prompt: # outcome lookup, item COc1ccc(CCNCC(O)COc2nccc3c(S(=O)(=O)N4CCCNCC4)cccc23)cc1OC (configuration not stated)
Completion: inactive

Prompt: Find the recorded outcome belonging to COc1ccc(S(=O)(=O)NC2CCN(c3cc(C)nc(Nc4cccc(C#N)c4)n3)CC2)cc1 and report it.
Completion: inactive

Prompt: What does the record list as outcome for O=C(Cc1n[nH]c(=O)c2ccccc12)Nc1cccc(C(=O)Nc2cccc(C(F)(F)F)c2)c1 ?
Completion: inactive

Prompt: Param item = O=c1c2ccc(F)cc2sn1-c1ccc(Cl)cc1 ; retrieve measured outcome.
Completion: inactive

Prompt: Recorded outcome of N#Cc1c(-c2ccccc2)cn2c1[nH]c(=O)c1ccccc12 , please.
Completion: inactive

Prompt: Consider the compound shown here: Cc1cc2c(NC(=O)NC3CCN(CCc4cccc(Cl)c4)CC3)cccc2cn1 What is its recorded outcome?
Completion: inactive

Prompt: Name the recorded outcome for O=C(COc1ccc(Cl)c(Cl)c1)NCCCCCN1CCCN(C(=O)Nc2ccc(Cl)c(Cl)c2)CC1 .
Completion: inactive

Prompt: Tell me the measured outcome of CC1CCN(Cc2c(O)ccc3c(=O)c(-c4nc5ccccc5s4)c(N)oc23)CC1 , please.
Completion: inactive

Prompt: For CN1CCN(c2ccnc3ccc(NC(=O)Nc4ccc(-c5ccncc5)c(C(F)(F)F)c4)cc23)CC1 , what is its reported outcome?
Completion: inactive

Prompt: May I ask what outcome has been recorded for CC(C)C(=O)NC(c1ccc(N(C)C)cc1)c1cc(Cl)c2cccnc2c1O (configuration not stated) ?
Completion: inactive

Prompt: # get_value(readout='outcome', item= O=C(N[C@H]1CCN(Cc2ccc(OCCN3CCCC3)c3ccccc23)C1)c1ccc(Cl)c(Cl)c1 )
Completion: inactive

Prompt: Any idea what outcome was measured for COC(=O)c1cccc(CNCc2cccc(-c3ccc(-c4nc5ccccc5[nH]4)cc3)c2)c1 ?
Completion: inactive

Prompt: Need outcome of N#Cc1ccc(C(=O)NC2CCN(CCCCCNC(=O)/C=C/c3ccc(Cl)c(Cl)c3)CC2)cc1 , thanks.
Completion: inactive

Prompt: Data request, read-out outcome, for CCC(C)CN1CCN(c2ccc(NC(=O)c3cccs3)cc2)CC1C (configuration not stated)
Completion: inactive

Prompt: Please look up its outcome: CCCCOc1ccc(/C=C/c2ccc(-c3c(C)[nH]c(C)c(Cl)c3=O)s2)cc1
Completion: inactive

Prompt: What value of outcome has been reported for the following compound? CCCNC(=O)Nc1cc2cc(-c3ccc(CN4CCCC4)cc3)ccc2n2c(C)nnc12
Completion: inactive

Prompt: Reported outcome, compound CN(c1ccc2c(c1)nc(Nc1cc(C(C)(C)C)on1)n2C)c1ccnc(Nc2ccc(CS(C)(=O)=O)cc2)n1 : ____
Completion: inactive

Prompt: Request the reported outcome associated with Cc1cc(C(=O)NC2CCN(Cc3ccccc3)CC2)ccc1-c1nc2cc(Cl)c(Cl)cc2[nH]1
Completion: inactive

Prompt: Dear colleague, I am looking for the recorded outcome of the following compound: Cc1ccc(-c2nc3ccc(C(=O)NC4CCC(N5CCCc6ccc(C#N)cc6C5)CC4)cc3[nH]2)cc1 (configuration not stated)
Completion: inactive

Reference source for all entries: PubChem BioAssay
